- experimentSummary: Tmax in Sprague-Dawley rat at 5 to 10 mg/kg, po administered as cassette dose measured upto 24 hrs by LC-MS analysis
- Format: ADME, organism-based
- setupConditions: in vivo, dose 5-10 mg/kg
endpointName: Tmax (h)

Examples with their reported Tmax follow.
O=C1CCC(N2C(=O)c3cccc(N4CCN(CC#CCN5CCN(c6ccc(C(F)(F)F)cc6)CC5)CC4)c3C2=O)C(=O)N1 (centres undefined) : 0.9
Nc1ncnc2c1c(-c1ccc(Oc3ccccc3)cc1)nn2[C@@H]1CCCN(C(=O)[C@H]2CC[C@H](C(=O)N3CCN(CC#Cc4ccc5c(c4)CN(C4CCC(=O)NC4=O)C5=O)CC3)CC2)C1 (some centres undefined) : 0.6

(P) O=C1CCC(N2C(=O)c3ccc(N4CCN(C5CN(CC#CCOc6ccc(C(F)(F)F)cc6)C5)CC4)cc3C2=O)C(=O)N1 (centres undefined)
(Q) O=C1CCC(N2Cc3cc(C#CCN4CCN(CC#CCOc5ccc(C(F)(F)F)cc5)CC4)ccc3C2=O)C(=O)N1 (centres undefined)
INPUT: Two entries are listed, P and Q . Which one carries the higher Tmax? Use the label to indicate which entry you chose.
OUTPUT: Q
(Q: 8.3 h, P: 1.2 h)
